All values here come from ChEMBL document CHEMBL2021924.

- Tested on: Nucleic Acid
- protocol notes: Stabilization of human G-quadruplex F21T assessed as change in melting temperature at 1 uM by FRET assay
- Type: nucleic-acid assay
test readout: ΔTm (°C)

Some entries whose results are on file:
# lookup: CCN1C=C/C(=C\C=C\c2cc[n+](CC)c3ccccc23)c2ccccc21 on Nucleic Acid, ΔTm = 11.2

Tested on Nucleic Acid: Cc1cc2nc3ccc(N(C)C)cc3[s+]c2cc1N . Observed ΔTm: 20.3

Per the reported Nucleic Acid data, COc1ccc2cc3[n+](cc2c1OC)CCc1cc2c(cc1-3)OCO2 has ΔTm of 9.7

Query c1ccc2c(NCCCCCCCCNc3c4ccccc4nc4ccccc34)c3ccccc3nc2c1 on Nucleic Acid; ΔTm returned: 3

# Cc1cc(N)c2ccccc2[n+]1CCCCCCCCCC[n+]1c(C)cc(N)c2ccccc21 with Nucleic Acid: ΔTm is 19.5

[P] O=C(Nc1ccc(C2=NCCN2)cc1)c1ccc(Cl)c(C(=O)Nc2ccc(C3=NCCN3)cc2)c1
[Q] O=C(Nc1ccc(C2=NCCN2)cc1)c1ccc(C(=O)Nc2ccc(C3=NCCN3)cc2)c(Cl)c1
[R] CC(=O)N(C)c1ccc(Nc2cc(C)nc3ccc4nc[nH]c4c23)cc1
**Q:** List the 3 entries from lowest ΔTm to highest ΔTm value. Your reply should list the labels following the order given in the request.
**A:** Q, R, P

[1] COc1cc2cc3c4cc(OC)c(OC)cc4cc[n+]3c(C)c2cc1OC.O=C([O-])CS(=O)(=O)O
[2] N=C(N)c1ccc(/C=C/c2ccc(C(=N)N)cc2O)cc1
[3] COc1cc(Cc2nccc3cc(OC)c(OC)cc23)c(C(C)=O)cc1OC
[4] CN(C)c1ccc(C=c2c3ccccc3n3c2cc(-c2ccc(Cl)cc2)[n+]3C)cc1
**Q:** Order the records by ΔTm, with each subsequent value no larger than the one before. Write out the labels following the order that was asked for.
**A:** 1, 2, 3, 4
(1: 29.9 °C, 2: 17.3 °C, 3: 8 °C, 4: 1.3 °C)

[1] Cc1ccc(NC(=O)Nc2nc3ccccc3s2)cc1NC(=O)Nc1nc2ccccc2s1
[2] CCN(CC)Cc1cc2[nH]c3c4ccc(Cl)cc4ncc3c2cc1OC
[3] Cc1cc(N)c2cc(NC(=O)/C=C/c3ccccc3Cl)ccc2n1
**Q:** List items by ΔTm in falling order. Answer by naming the labels in the order asked.
**A:** 1, 2, 3
(1: 22.7 °C, 2: 15 °C, 3: 7.3 °C)
